study_system: Protein cereblon/Tyrosine-protein kinase BTK (Homo sapiens, UniProt Q06187+Q96SW2)
Sequence (Q06187 2-659 limits assumed): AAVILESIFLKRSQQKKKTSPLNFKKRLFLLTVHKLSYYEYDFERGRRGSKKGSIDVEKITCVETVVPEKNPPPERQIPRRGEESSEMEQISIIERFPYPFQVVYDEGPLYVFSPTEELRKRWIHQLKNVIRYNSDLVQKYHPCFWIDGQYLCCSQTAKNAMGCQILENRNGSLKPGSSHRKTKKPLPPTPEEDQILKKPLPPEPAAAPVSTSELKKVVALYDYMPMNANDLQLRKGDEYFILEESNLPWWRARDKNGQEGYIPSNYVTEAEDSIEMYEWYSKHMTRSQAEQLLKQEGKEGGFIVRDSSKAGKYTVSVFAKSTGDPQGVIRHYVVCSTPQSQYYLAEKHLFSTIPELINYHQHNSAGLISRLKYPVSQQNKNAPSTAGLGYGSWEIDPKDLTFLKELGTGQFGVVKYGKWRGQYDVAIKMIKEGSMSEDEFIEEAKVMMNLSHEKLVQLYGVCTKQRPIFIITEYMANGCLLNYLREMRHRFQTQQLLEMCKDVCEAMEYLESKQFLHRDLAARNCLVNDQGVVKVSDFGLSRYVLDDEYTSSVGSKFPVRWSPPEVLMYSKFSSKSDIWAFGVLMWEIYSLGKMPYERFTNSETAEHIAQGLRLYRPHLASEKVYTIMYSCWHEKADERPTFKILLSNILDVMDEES
Sequence (Q96SW2 whole entry partner): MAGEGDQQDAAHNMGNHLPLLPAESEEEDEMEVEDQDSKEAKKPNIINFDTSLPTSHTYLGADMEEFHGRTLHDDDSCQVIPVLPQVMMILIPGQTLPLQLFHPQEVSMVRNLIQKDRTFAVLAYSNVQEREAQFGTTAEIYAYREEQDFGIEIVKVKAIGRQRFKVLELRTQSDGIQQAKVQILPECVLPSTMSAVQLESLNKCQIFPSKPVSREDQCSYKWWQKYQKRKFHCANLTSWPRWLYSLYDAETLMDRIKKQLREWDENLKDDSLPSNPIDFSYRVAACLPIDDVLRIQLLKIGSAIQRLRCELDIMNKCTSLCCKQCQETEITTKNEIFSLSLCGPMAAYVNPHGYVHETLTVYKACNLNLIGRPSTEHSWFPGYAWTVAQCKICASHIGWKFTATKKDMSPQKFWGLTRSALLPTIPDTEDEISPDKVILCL
experimental_details: PROTAC activity at CRBN/BTK in human JeKo-1 cells assessed as induction of BTK degradation at 100 nM incubated for 24 hrs by Western blotting analysis relative to control
Format: cell-based
Each entry below carries its recorded Activity.
The number alone won't do; follow it with the unit.

Answered examples (3):
1. O=C1CCC(N2Cc3ccc(N4CCC(CCN5CCC(CC(=O)N[C@H]6CC[C@@H](Nc7ncnc8[nH]cc(C(=O)c9ccc(Oc%10ccccc%10)cc9Cl)c78)CC6)CC5)CC4)cc3C2=O)C(=O)N1 (stereo partly specified) : 83%
2. O=C1CCC(N2C(=O)c3ccc(N4CCC(CN5CC(CN[C@H]6CC[C@@H](Nc7ncnc8[nH]cc(C(=O)c9ccc(Oc%10ccccc%10)cc9Cl)c78)CC6)C5)CC4)cc3C2=O)C(=O)N1 (stereo partly specified) : 29.5%
3. O=C1CCC(N2C(=O)c3ccc(N4CCC(N[C@H]5CC[C@@H](Nc6ncnc7[nH]cc(C(=O)c8ccc(Oc9ccccc9)cc8Cl)c67)CC5)CC4)cc3C2=O)C(=O)N1 (stereo partly specified) : 3%

Ask: Recall the recorded Activity for O=C1CCC(N2C(=O)c3cc(F)c(N4CCC(CCN5CCC(CC(=O)N[C@H]6CC[C@@H](Nc7ncnc8[nH]cc(C(=O)c9ccc(Oc%10ccccc%10)cc9Cl)c78)CC6)CC5)CC4)cc3C2=O)C(=O)N1 (stereo partly specified) with Protein cereblon/Tyrosine-protein kinase BTK (Homo sapiens, UniProt Q06187+Q96SW2) and state it.
Reply: 87%

Ask: Find the measured Activity: item O=C1CCC(N2C(=O)c3ccc(N4CCC(CN5CC(N[C@H]6CC[C@@H](Nc7ncnc8[nH]cc(C(=O)c9ccc(Oc%10ccccc%10)cc9Cl)c78)CC6)C5)CC4)cc3C2=O)C(=O)N1 (stereo partly specified) , target or system Protein cereblon/Tyrosine-protein kinase BTK (Homo sapiens, UniProt Q06187+Q96SW2).
Reply: 32%

Ask: State its Activity on Protein cereblon/Tyrosine-protein kinase BTK (Homo sapiens, UniProt Q06187+Q96SW2): O=C1CCC(N2C(=O)c3ccc(N4CCC(CC(=O)N5CCC(CN[C@H]6CC[C@@H](Nc7ncnc8[nH]cc(C(=O)c9ccc(Oc%10ccccc%10)cc9Cl)c78)CC6)CC5)CC4)cc3C2=O)C(=O)N1 (stereo partly specified)
Reply: 45.5%
